# assay_system: MET (human) (Homo sapiens, UniProt P08581)
# Sequence (P08581 25-1390): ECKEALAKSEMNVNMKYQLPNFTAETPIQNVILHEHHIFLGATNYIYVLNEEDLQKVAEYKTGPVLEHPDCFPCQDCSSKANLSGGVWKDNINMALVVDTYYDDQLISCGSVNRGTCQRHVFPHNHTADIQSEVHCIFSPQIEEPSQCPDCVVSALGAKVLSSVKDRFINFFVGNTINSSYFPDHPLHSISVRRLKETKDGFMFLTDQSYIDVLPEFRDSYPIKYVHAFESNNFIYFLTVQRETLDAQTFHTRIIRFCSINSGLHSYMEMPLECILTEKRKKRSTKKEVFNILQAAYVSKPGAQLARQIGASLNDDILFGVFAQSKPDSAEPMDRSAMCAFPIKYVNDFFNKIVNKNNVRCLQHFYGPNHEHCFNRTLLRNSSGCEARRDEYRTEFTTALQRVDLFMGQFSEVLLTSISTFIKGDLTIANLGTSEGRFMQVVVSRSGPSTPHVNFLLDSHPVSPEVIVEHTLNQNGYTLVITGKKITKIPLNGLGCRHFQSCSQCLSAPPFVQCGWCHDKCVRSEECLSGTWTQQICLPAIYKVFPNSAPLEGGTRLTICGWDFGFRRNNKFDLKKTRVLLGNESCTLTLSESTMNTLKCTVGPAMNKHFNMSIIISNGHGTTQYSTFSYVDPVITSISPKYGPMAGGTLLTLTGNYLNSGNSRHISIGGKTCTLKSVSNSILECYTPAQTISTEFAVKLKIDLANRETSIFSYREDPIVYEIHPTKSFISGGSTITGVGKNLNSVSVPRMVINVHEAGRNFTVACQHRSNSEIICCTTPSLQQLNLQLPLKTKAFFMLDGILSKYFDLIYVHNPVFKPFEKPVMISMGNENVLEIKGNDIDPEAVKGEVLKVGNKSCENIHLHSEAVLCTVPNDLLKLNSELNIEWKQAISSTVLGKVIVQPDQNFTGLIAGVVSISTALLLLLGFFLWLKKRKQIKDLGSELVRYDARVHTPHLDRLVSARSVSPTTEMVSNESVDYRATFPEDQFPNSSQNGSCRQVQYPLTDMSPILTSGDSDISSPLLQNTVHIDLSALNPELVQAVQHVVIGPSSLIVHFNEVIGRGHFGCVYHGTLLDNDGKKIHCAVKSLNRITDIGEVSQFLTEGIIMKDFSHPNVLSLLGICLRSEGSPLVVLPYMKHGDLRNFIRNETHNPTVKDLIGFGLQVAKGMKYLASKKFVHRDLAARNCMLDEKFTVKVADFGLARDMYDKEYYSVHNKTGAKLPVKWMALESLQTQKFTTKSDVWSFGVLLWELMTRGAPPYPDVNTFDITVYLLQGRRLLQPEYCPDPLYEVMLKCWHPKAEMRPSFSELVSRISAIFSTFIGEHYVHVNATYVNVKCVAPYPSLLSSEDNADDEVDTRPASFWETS
# method_notes: MET (human) AlphaScreen kinase assay, Km of ATP
# Type: biochemical
# experimental_conditions: AlphaScreen, Km of ATP; read-out: Met biochemical IC50
pIC50: −log10 of the molar value.
measurement_type: pIC50

{"columns": ["compound", "readout_value"],
 "data": [
  ["CC(Oc1c(N)ncc2c(-c3cnn(C4CCNCC4)c3)coc12)c1cccc(C(N)=O)c1 (stereo not shown) [Example 411]", "5.30 to 6.30"],
  ["CC(Cc1ccc(Cl)c(Cl)c1)Oc1c(N)ncc2c(-c3cnn(C4CCNCC4)c3)coc12 (stereo not shown) [Example 428]", "5.30 to 6.30"],
  ["C[C@@H](Oc1c(N)ncc2c(-c3ccc(S(C)(=O)=O)cc3)coc12)c1c(Cl)ccc(F)c1Cl [Example 62]", "5.30 to 6.30"],
  ["C[C@@H](Oc1c(N)ncc2c(C3=CCN(C(=O)N4CCOCC4)CC3)coc12)c1c(Cl)ccc(F)c1Cl [Example 31]", "5.30 to 6.30"],
  ["CCN1CCN(C(=O)N2CC=C(c3coc4c(O[C@H](C)c5c(Cl)ccc(F)c5Cl)c(N)ncc34)CC2)CC1 [Example 27]", "> 6.30"],
  ["C[C@@H](Oc1c(N)ncc2c(-c3cnn(C4CCNCC4)c3)coc12)c1ccccn1 [Example 399]", "5.30 to 6.30"],
  ["C[C@@H](Oc1c(N)ncc2c(-c3ccc(C(=O)NCC(C)(C)CN(C)C)cc3)coc12)c1c(Cl)ccc(F)c1Cl [Example 298]", "> 6.30"]
]}

Reference for the values: patent US8022206B2
